# Assay notes: chemical genetic growth profiling, strain panel (AID 1159580);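 further: tested at 20 µM; growth read once vehicle control cultures reached saturation at 30 °C; 1 = growth at the plate median or of vehicle wells; lower values mean less growth of the strain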
# Condition: S. cerevisiae deletion strains, growth OD, locus YNL197C, strain WHI3, stronger effect = lower value
Hit rate of the full screen: of about 5,500 compounds, about 2,000 (36%) were called active. Inconclusive results (about 18%) are left out. Some of the results follow.
Reported endpoint: normalized growth
Numbers only.

Examples with answers:
{"Compound": "Cn1cnc2c(NCc3ccccc3)nc(NCCO)nc21", "normalized growth": 0.982}
{"Compound": "N=C(N)SCCc1ccc(CCSC(=N)N)cc1", "normalized growth": 1.03}
{"Compound": "C[C@@H](N)Cc1cnc[nH]1", "normalized growth": 1.02}
{"Compound": "NCc1cc(=O)[nH]o1", "normalized growth": 1.02}
{"Compound": "NN=C(N)N", "normalized growth": 1.01}

Hello, I would appreciate it if you could give normalized growth for each entry below.
1. CC1C(=O)N(C)C(=O)c2nc[nH]c21 (stereo unspecified)
2. O=C1Cc2c([nH]c3ccc(Br)cc23)-c2ccccc2N1
3. C=CCn1c(=O)c2c(nc(-c3ccc(S(=O)(=O)O)cc3)n2C)n(C)c1=O
4. CCNC(=O)C1OC(n2cnc3c(NCc4ccccc4)ncnc32)C(O)C1O (stereo unspecified)
5. O=C(O)C1CCCN(CCC=C(c2ccccc2)c2ccccc2)C1 (stereo unspecified)
6. COc1ccc2[nH]cc(CCN)c2c1

**Result**
1: 0.989; 2: 0.988; 3: 0.987; 4: 0.95; 5: 1; 6: 0.99

###

# Assay notes: chemical genetic growth profiling, strain panel (AID 1159580)
# Condition: S. cerevisiae deletion strains, growth OD, locus YNL224C, strain SQS1, stronger effect = lower value
Screen size: about 5,500 compounds; about 2,000 (36%) were called active. About 18% were inconclusive and are not listed. Some of the results follow.
Reported endpoint: normalized growth
Numbers only.

Example cases with answers are listed next.
{"Compound": "CC(C)(CO)Cc1cc(C(C)(C)C)c(O)c(C(C)(C)C)c1", "normalized growth": 0.962}
{"Compound": "C[C@@H]1O[C@@H](O[C@H]2C[C@@H](O)[C@]3(CO)[C@@H]4C(CC[C@]3(O)C2)[C@@]2(O)CC[C@H](C3COC(=O)C3)[C@@]2(C)C[C@H]4O)[C@H](O)[C@H](O)[C@H]1O (stereo partly specified)", "normalized growth": 0.974}
{"Compound": "Nc1ncnc2c1ncn2C1CCCC1", "normalized growth": 1.03}
{"Compound": "Nc1ncnc2c1c(-c1ccc(Oc3ccccc3)cc1)cn2C1CCCC1", "normalized growth": 0.952}
{"Compound": "c1cnc(N2CCN(Cc3ccc4c(c3)OCO4)CC2)nc1", "normalized growth": 0.985}

Now let's try a different one.
**Query** Given C[C@@H](N)Cc1cnc[nH]1 , state its recorded normalized growth.
**Result** 1.02

###

# Assay notes: chemical genetic growth profiling, strain panel (AID 1159580)
# Condition: S. cerevisiae deletion strains, growth OD, locus YAL013W, strain DEP1
Out of some 5,500 compounds screened, about 2,000 (36%) were called active. Not shown: some 18% with an inconclusive outcome. Cut-off read from the data, not from the text of the source: active = normalized growth mostly below about 0.91 (no sharp cut-off); inconclusive = no clear call, values can overlap the other calls; inactive = mostly above about 0.92. The list shows a part of the results.
Pick one and only one: active, inactive

# count of solved cases: 4
{"Molecule": "CS/C(N)=N\\N=C/c1c(F)cccc1Cl", "Cat": "inactive"}
{"Molecule": "NCCc1ccc(S(=O)(=O)F)cc1", "Cat": "inactive"}
{"Molecule": "O=C1ON=C(CSc2ccccc2)/C1=C/c1ccc(Cl)cc1", "Cat": "active"}
{"Molecule": "CC1(C)CC[C@@]2(C(=O)O)C(C1)C1=CCC3[C@@]4(C)CC[C@H](O)C(C)(C)C4CC[C@@]3(C)[C@]1(C)C[C@@H]2O (stereo not given in full)", "Cat": "inactive"}

--- query ---
**Query** Please state the recorded outcome for this molecule: Cc1cn([C@H]2C[C@H](N=[N+]=[N-])[C@@H](CO)O2)c(=O)[nH]c1=O
**Result** inactive

###

# Assay notes: chemical genetic growth profiling, strain panel (AID 1159580);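 further: tested at 20 µM; growth read once vehicle control cultures reached saturation at 30 °C; 1 = growth at the plate median or of vehicle wells; lower values mean less growth of the strain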
# Condition: S. cerevisiae deletion strains, growth OD, locus YLR039C, strain RIC1
About 2,000 (36%) of roughly 5,500 compounds were called active. Inconclusive results (about 18%) are left out. Rule as the data show it: active = normalized growth mostly below about 0.91 (no sharp cut-off); inconclusive = no clear call, values can overlap the other calls; inactive = mostly above about 0.92. This is one part of the list. Where a SMILES comes first, the peptide text is derived from it. The star is where a group is joined. For = O=C*
Form entry, call: pick from active, inactive

Example entries begin here.
{"Molecule": "COc1ccc2c3c([nH]c2c1)C(C)=NCC3", "Cat": "inactive"}
{"Molecule": "COc1ccc(C(=O)CN2CCN(c3cc(C)nc4ccccc34)CC2)cc1", "Cat": "inactive"}
{"Molecule": "CSCCC(NC=O)C(=O)NC(Cc1ccccc1)C(=O)O (stereo not drawn) (For-Met-Phe-OH; configuration not given here)", "Cat": "inactive"}
{"Molecule": "Nc1c2ccccc2nc2ccccc12 (tested in a mixture with another compound)", "Cat": "active"}

--- query ---
**Query** Per the assay record, what outcome was assigned to NNc1nncc2ccccc12 ?
**Result** inactive

###

# Assay notes: chemical genetic growth profiling, strain panel (AID 1159580);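 further: tested at 20 µM; growth read once vehicle control cultures reached saturation at 30 °C; 1 = growth at the plate median or of vehicle wells; lower values mean less growth of the strain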
# Condition: S. cerevisiae deletion strains, growth OD, locus YBR231C, strain swc5, stronger effect = lower value
Among all 5,500 compounds or so, about 2,000 (36%) were called active. Another 18% or so got no clear call; they are omitted. The list shows a part of the results.
Reported endpoint: normalized growth
Answers are plain numbers.

{"Molecule": "Cc1cc(O)cc(O)c1C(=O)O", "Numeric result": 1}
{"Molecule": "CCOC(=O)OC(C)OC(=O)C1N2C(=O)C(NC(=O)[C@H](N)c3ccccc3)C2SC1(C)C (some centres not stated)", "Numeric result": 0.987}
{"Molecule": "Nc1ccc(S(=O)(=O)Nc2ccnn2-c2ccccc2)cc1", "Numeric result": 1.01}
{"Molecule": "CC(C)=CCCC1(C)C=Cc2c(O)c3c(c(CC=C(C)C)c2O1)OC12C(=CCCC1C(C)(C)O[C@@]2(C/C=C(\\C)C(=O)O)C(=O)O)C3=O (some centres not stated)", "Numeric result": 0.861}
{"Molecule": "C[C@H]1[C@H](C)CC[C@]2(CO)CC[C@]3(C)C(=CCC4[C@@]5(C)CC[C@H](O)C(C)(C)C5CC[C@]43C)[C@H]12 (some centres not stated)", "Numeric result": 0.996}

For each entry beneath this line, provide reported normalized growth.
1. Nc1ccccc1C(=O)CC(N)C(=O)O (configuration not stated)
2. CO[C@@]12[C@@H]3NC3CN1C1=C(C(=O)C(N)=C(C)C1=O)[C@@H]2COC(N)=O (some centres not stated)

**Result**
[0.97, 0.954]

###

# Assay notes: chemical genetic growth profiling, strain panel (AID 1159580);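 further: tested at 20 µM; growth read once vehicle control cultures reached saturation at 30 °C; 1 = growth at the plate median or of vehicle wells; lower values mean less growth of the strain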
# Condition: S. cerevisiae deletion strains, growth OD, locus YDR334W, strain swr1
Hit rate of the full screen: of about 5,500 compounds, about 2,000 (36%) were called active. Another 18% or so got no clear call; they are omitted. Rule as the data show it: active = normalized growth mostly below about 0.91 (no sharp cut-off); inconclusive = no clear call, values can overlap the other calls; inactive = mostly above about 0.92. Some of the results follow. Where a SMILES comes first, the peptide text is derived from it. Bridges are numbered along the chain shown (N, C = ends). [ ]: non-standard residue; d: D form. The star is where a group is joined. ξ: configuration not given here. ξDab(CH2SO3H) = NC(CCNCS(=O)(=O)O)C(=O)O; Heptanoyl(6-Me) = CC(C)CCCCC(=O)*; Dab = NCC[CH](N)C(=O)O
Pick from active, inactive when you respond.

Illustrative cases are given below, each with its answer.
{"Molecule": "Cc1ccc(N=CN(C)C=Nc2ccc(C)cc2C)c(C)c1", "Cat": "inactive"}
{"Molecule": "C[C@@H]1C(=O)O[C@H]2[C@H]1CC[C@@]1(C)C=CC(=O)[C@@]3(C)O[C@@]213", "Cat": "inactive"}
{"Molecule": "NCCC(=O)N[C@@H](Cc1cnc[nH]1)C(=O)O", "Cat": "inactive"}
{"Molecule": "Cc1ccc(S(=O)(=O)NC(=O)NN2CC3CCCC3C2)cc1 (stereo not drawn)", "Cat": "inactive"}
{"Molecule": "CCC(C)C1NC(=O)C(CCNCS(=O)(=O)O)NC(=O)C(NC(=O)C(CCNCS(=O)(=O)O)NC(=O)C(NC(=O)C(CCNCS(=O)(=O)O)NC(=O)CCCCC(C)C)C(C)O)CCNC(=O)C(C(C)O)NC(=O)C(CCNCS(=O)(=O)O)NC(=O)C(CCNCS(=O)(=O)O)NC(=O)C(C(C)CC)NC1=O (stereo not drawn) ({Heptanoyl(6-Me)}-[ξDab(CH2SO3H)]T[ξDab(CH2SO3H)][Dab][ξDab(CH2SO3H)]II[ξDab(CH2SO3H)][ξDab(CH2SO3H)]T; lactam 4-C; configuration not given here)", "Cat": "inactive"}
{"Molecule": "OC(CCN1CCCC1)(c1ccccc1)C1CCCCC1 (stereo not drawn)", "Cat": "inactive"}

**Query** // return assay outcome for C[C@@H]1CC[C@H]2[C@@H](C)C(O)O[C@@H]3O[C@@]4(C)CC[C@@H]1[C@]32OO4 (stereo partly drawn)
**Result** active

**Query** Per the assay record, what outcome was assigned to O=c1[nH]cc(F)c(=O)[nH]1 ?
**Result** active
